# target_or_test_system: JAK3 JH1 catalytic (human) (UniProt P52333)
# Sequence (P52333 whole entry, looked up): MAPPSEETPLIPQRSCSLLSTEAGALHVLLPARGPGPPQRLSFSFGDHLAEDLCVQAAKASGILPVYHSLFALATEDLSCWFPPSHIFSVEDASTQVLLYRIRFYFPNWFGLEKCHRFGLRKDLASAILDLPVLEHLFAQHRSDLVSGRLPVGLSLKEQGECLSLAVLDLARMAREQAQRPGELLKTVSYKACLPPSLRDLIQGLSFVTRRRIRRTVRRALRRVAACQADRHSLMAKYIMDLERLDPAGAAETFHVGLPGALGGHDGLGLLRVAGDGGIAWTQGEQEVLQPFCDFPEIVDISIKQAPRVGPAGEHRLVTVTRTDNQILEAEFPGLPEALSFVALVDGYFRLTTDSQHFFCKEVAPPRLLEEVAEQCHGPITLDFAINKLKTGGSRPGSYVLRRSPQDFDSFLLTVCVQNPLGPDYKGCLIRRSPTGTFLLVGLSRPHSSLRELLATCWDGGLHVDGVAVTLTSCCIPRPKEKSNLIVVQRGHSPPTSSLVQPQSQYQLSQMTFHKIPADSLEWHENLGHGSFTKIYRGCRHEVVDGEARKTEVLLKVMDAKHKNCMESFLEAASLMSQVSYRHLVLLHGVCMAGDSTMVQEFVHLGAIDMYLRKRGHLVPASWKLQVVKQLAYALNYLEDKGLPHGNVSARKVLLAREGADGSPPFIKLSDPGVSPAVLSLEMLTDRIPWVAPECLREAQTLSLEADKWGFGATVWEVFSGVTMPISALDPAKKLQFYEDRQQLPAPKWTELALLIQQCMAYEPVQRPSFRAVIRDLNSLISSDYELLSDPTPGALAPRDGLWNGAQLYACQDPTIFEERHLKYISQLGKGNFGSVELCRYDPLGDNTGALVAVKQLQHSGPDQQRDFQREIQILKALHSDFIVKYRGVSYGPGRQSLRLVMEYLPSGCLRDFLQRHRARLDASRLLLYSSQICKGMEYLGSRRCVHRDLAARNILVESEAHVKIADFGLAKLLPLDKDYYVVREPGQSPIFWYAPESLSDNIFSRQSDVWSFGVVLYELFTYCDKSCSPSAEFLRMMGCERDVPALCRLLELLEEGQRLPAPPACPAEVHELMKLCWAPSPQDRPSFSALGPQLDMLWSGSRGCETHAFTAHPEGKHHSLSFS
# experiment_summary: KINOMEscan competition binding
# details: compound 10.0 µM
Parameter class (string): assigned from measured kinase still bound, per cent of control. Ranges: bin 1: < 0.3%; bin 2: ≥ 0.3% and < 60%; bin 3: ≥ 60%

- entry_smiles: "CNC(=O)c1ccc(Nc2cc(Nc3ccccc3S(=O)(=O)C(C)C)c3cc[nH]c3n2)nc1"
  target_or_test_system: "JAK3 JH1 catalytic (human) (UniProt P52333)"
  qualitative_label: "bin 2"

# classify by kinase still bound, per cent of control band: COc1cc2ncnc(-n3nc(-c4ccccn4)nc3N)c2cc1OC
bin 2

Please classify: C=CC(=O)Nc1cc(-n2c(=O)ccc3cnc4ccc(-c5cn[nH]c5)cc4c32)ccc1C
bin 1

For CCN(CC)CCCCNc1ncc2cc(-c3cc(OC)cc(OC)c3)c(NC(=O)NC(C)(C)C)nc2n1 , which kinase still bound, per cent of control bin applies?
bin 3

Record COc1ccc(N(C(=O)Oc2c(C)cccc2C)c2ccnc(Nc3ccc(N4CCN(C)CC4)cc3)n2)c(OC)c1 — which class?
bin 1

Band for C[C@@H](Oc1cc(-c2cnn(C3CCNCC3)c2)cnc1N)c1c(Cl)ccc(F)c1Cl ?
bin 2

Assign a bin to O=C(Nc1cccc(Nc2ncc(Br)c(NCCc3cnc[nH]3)n2)c1)N1CCCC1
bin 1

Into which bin does this compound go? CNC(=O)c1cc(Oc2ccc(NC(=O)Nc3ccc(Cl)c(C(F)(F)F)c3)cc2)ccn1
bin 2

Please report the category associated with COc1cc(N2CCN(C)CC2)ccc1Nc1ncc2c(n1)N(C)c1ccccc1C(=O)N2C , nothing else.
bin 3

Field: class (kinase still bound, per cent of control) — entry: O=C1NC(=O)/C(=C/c2ccc3nccc(-c4ccncc4)c3c2)S1
bin 1

Please indicate the class for COCC(=O)NC/C=C/c1ccc2ncnc(Nc3ccc(Oc4ccc(C)nc4)c(C)c3)c2c1 based on its kinase still bound, per cent of control.
bin 3

Bin this entry: CCN(CC)CCCCNc1ncc2c(n1)N(C)C(=O)N(c1c(Cl)c(OC)cc(OC)c1Cl)C2
bin 3

Categorize the following entry: NC(=O)Nc1cc(-c2cccc(F)c2)sc1C(=O)N[C@@H]1CCCNC1
bin 1

For the record CS(=O)(=O)N1CCN(Cc2cc3nc(-c4cccc5[nH]ncc45)nc(N4CCOCC4)c3s2)CC1 , report the class its kinase still bound, per cent of control corresponds to.
bin 3

Looking at C=CC(=O)Nc1ccc(CN(C(=O)Nc2c(Cl)c(OC)cc(OC)c2Cl)c2cc(Nc3ccc(N4CCN(C)CC4)cc3)ncn2)cc1 , which class would you pick?
bin 1

Each compound maps to one class by kinase still bound, per cent of control. Which class for Cc1n[nH]c2ccc(-c3cncc(OC[C@@H](N)Cc4c[nH]c5ccccc45)c3)cc12 ?
bin 2

The entry to classify is COc1cc(C(=O)N2CCC(N3CCN(C)CC3)CC2)ccc1Nc1ncc2c(n1)N(C)c1ccccc1C(=O)N2C ; which class holds it?
bin 3

Which kinase still bound, per cent of control category applies to COc1cc2ncn(-c3cc(OCc4ccccc4C(F)(F)F)c(C(N)=O)s3)c2cc1OC here?
bin 2

* * *

Listed here are molecules together with their documented kinase still bound, per cent of control.
# target_or_test_system: RPS6KA5 KD1 (human) (UniProt O75582)
# Sequence (O75582 whole entry, looked up): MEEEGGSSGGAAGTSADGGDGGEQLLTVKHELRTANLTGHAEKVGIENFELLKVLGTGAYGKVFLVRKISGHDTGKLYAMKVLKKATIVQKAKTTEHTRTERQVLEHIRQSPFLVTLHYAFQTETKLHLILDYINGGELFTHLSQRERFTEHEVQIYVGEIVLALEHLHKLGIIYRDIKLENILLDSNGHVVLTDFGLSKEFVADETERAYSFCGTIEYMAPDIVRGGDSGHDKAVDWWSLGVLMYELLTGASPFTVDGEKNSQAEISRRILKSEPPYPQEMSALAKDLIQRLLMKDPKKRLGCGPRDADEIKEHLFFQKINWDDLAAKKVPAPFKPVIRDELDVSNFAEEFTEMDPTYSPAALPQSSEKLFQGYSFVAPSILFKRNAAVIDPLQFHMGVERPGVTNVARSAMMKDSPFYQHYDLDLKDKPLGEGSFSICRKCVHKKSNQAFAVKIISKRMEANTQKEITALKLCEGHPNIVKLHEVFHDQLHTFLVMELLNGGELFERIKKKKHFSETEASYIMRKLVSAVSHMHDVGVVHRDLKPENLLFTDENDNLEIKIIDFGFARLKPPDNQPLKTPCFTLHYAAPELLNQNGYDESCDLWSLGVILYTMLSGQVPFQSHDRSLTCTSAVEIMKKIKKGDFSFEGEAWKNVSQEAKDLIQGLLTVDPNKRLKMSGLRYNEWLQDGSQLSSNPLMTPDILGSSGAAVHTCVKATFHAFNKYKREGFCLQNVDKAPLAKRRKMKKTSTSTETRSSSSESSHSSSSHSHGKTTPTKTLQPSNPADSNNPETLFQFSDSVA
# experiment_summary: KINOMEscan competition binding
# details: compound 10.0 µM
Give the quantity in %, number only.

Study these solved cases before continuing.
- entry_smiles: "O=C(Nc1cccc(Nc2ncc(Br)c(NCCc3cnc[nH]3)n2)c1)N1CCCC1"
  reading: 57
- entry_smiles: "CN(C)C/C=C/C(=O)Nc1ccc(C(=O)Nc2cccc(Nc3nccc(-c4cccnc4)n3)c2)cc1"
  reading: 100
- entry_smiles: "C=CC(=O)Nc1cc(-n2c(=O)ccc3cnc4ccc(-c5cn[nH]c5)cc4c32)ccc1C"
  reading: 100
- entry_smiles: "C=CC(=O)Nc1ccc(CN(C(=O)Nc2c(Cl)c(OC)cc(OC)c2Cl)c2cc(Nc3ccc(N4CCN(C)CC4)cc3)ncn2)cc1"
  reading: 100
- entry_smiles: "CS(=O)(=O)N1CCN(Cc2cc3nc(-c4cccc5[nH]ncc45)nc(N4CCOCC4)c3s2)CC1"
  reading: 100
- entry_smiles: "COc1ccc(N(C(=O)Oc2c(C)cccc2C)c2ccnc(Nc3ccc(N4CCN(C)CC4)cc3)n2)c(OC)c1"
  reading: 100
- entry_smiles: "C[C@@H](Oc1cc(-c2cnn(C3CCNCC3)c2)cnc1N)c1c(Cl)ccc(F)c1Cl"
  reading: 100

Next molecule, kinase still bound, per cent of control to be filled in.
For record CCN1CCN(C(=O)Cc2ccc(Nc3ncc(F)c(Nc4ccc(C(=O)Nc5ccccc5Cl)cc4)n3)cc2)CC1 the listed kinase still bound, per cent of control is 100
